Recorded EC50, one value per entry.
Biological target: HEK cells stably transfected with tetracycline inducible hNR1 and hNR2A (Homo sapiens, UniProt Q05586+Q12879)
Construct: expressed in transfected cells; host or cells: HEK cells, stably transfected, tetracycline/doxycycline inducible
Sequence (Q12879 23-1464, other chains not shown): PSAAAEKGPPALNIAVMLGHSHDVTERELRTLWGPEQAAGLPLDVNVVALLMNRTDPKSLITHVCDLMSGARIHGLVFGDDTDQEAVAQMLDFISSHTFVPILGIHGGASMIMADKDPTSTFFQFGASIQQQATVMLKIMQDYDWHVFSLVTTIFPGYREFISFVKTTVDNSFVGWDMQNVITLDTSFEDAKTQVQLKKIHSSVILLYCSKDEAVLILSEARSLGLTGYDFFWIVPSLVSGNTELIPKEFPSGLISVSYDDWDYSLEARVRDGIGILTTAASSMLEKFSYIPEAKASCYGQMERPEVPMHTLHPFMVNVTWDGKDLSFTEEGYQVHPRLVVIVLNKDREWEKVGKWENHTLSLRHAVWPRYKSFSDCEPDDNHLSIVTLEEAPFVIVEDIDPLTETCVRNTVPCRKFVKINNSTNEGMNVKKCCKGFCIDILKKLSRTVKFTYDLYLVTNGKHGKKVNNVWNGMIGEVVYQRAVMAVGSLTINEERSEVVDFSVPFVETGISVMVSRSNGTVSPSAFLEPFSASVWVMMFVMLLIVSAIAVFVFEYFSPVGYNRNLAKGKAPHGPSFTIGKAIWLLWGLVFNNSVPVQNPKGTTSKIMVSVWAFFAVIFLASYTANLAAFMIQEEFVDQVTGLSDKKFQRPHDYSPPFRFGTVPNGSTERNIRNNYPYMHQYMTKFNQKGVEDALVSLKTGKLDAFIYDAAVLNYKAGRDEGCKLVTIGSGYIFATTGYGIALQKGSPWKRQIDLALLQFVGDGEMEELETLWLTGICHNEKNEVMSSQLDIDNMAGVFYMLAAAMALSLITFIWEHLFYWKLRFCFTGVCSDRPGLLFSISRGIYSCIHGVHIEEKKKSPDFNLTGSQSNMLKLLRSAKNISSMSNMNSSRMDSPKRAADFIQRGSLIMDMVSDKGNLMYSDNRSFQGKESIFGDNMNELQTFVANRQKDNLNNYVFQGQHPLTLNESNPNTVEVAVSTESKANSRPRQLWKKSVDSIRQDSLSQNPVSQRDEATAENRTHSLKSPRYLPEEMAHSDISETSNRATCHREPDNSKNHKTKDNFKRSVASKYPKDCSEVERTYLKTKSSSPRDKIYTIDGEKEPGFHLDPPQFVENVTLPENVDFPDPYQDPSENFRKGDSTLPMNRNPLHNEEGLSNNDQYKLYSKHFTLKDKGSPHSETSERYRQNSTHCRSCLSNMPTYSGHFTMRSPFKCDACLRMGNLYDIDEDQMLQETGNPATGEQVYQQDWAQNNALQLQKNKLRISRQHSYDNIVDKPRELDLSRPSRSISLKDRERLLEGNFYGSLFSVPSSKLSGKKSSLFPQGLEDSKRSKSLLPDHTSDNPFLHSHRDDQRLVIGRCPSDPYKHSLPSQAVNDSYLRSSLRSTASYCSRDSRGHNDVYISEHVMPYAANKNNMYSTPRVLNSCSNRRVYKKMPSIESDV
Experiment: Assay 1: Cell-Based Assay, cytosolic calcium response to positive allosteric modulators (with 30 μM glycine and 300 nM L-glutamate, EC30)
Conditions: Table 3; cytosolic calcium response, with 30 μM glycine and 300 nM L-glutamate (EC30); — = no plateau was reached
The number alone won't do; follow it with the unit.

CC1CC1c1c(C(F)(F)F)sc2nc(Cn3nc(C(F)(F)F)cc3Cl)cc(=O)n12 (stereo not shown)	1.39 µM
C=C(C)c1c(C(F)(F)F)sc2nc(Cn3nc(C(F)(F)F)cc3Cl)cc(=O)n12	7.46 µM

Find the recorded EC50 belonging to CCNC(=O)c1c(C(F)(F)F)sc2nc(Cn3nc(Cl)cc3Cl)cc(=O)n12 and report it. 0.611 µM

Find the recorded EC50 belonging to C#Cc1cc(F)c(F)cc1Cc1cc(=O)n2c(C(=O)NC)c(C)sc2n1 and report it. 9.02 µM

Reference source for all entries: patent US9988400B2
